molecular target: SARS2 coronavirus 3CL protease (Severe acute respiratory syndrome coronavirus 2, UniProt P0DTD1); assay: biochemical; settings: 5 nM enzyme, 30 min pre-incubation with compound, 15 μM peptide substrate, 4 h at room temperature; read-out: FRET Potency (nM); IC50 values in the SARS2 3CLPro FRET assay
With a cut-off of 8 nM, any IC50 strictly below it is called true; any IC50 meeting it or above is called false.

| MOLECULE | LABEL |
| --- | --- |
| C[C@@H]1C[C@@H](C[C@H](NC(=O)c2cc(Cl)ccc2NC(=O)[C@H]2CC2(F)F)C(=O)C(=O)NC2CC2)C(=O)N1 [Example 8] | false |
| C[C@@H]1C[C@@H](C[C@H](NC(=O)c2cc(Cl)ccc2NC(=O)[C@@H]2CNC(=O)O2)C(=O)C(=O)NC2CC2)C(=O)N1 [Example 193] | true |
| O=C(Nc1ccc(Cl)cc1C(=O)N[C@@H](C[C@@H]1CCNC1=O)C(=O)C(=O)NC1CC1)OCC(F)(F)F [Example 191] | false |
| CNC(=O)C(=O)[C@H](C[C@@H]1C[C@@H](C)NC1=O)NC(=O)c1nc(Cl)ccc1NC(=O)OC [Example 113] | false |
| C[C@@H]1C[C@@H](C[C@H](NC(=O)c2cc(Cl)ccc2NC(=O)C(C)(C)C(F)(F)F)C(=O)C(=O)NC2CC2)C(=O)N1 [Example 15] | false |
| C[C@@H]1C[C@@H](C[C@H](NC(=O)c2cc(Cl)c(F)cc2NC(=O)CCC(F)(F)F)C(=O)C(=O)NC2CC2)C(=O)N1 [Example 53] | false |
| C[C@@H]1C[C@@H](C[C@H](NC(=O)c2cc(Cl)ccc2NC(=O)c2ccnc(C(F)(F)F)c2)C(=O)C(N)=O)C(=O)N1 [Example 208] | true |
| C[C@@H]1C[C@@H](C[C@H](NC(=O)c2cc(Cl)ccc2NC(=O)N2CCOCC2)C(=O)C(=O)NC2CC2)C(=O)N1 [Example 194] | true |
| CNC(=O)C(=O)[C@H](C[C@@H]1C[C@@H](C)NC1=O)NC(=O)c1cc(Cl)ccc1NC(=O)OC1CC1(F)F (stereo partly shown) [Example 172] | true |
| CNC(=O)C(=O)[C@H](C[C@@H]1C[C@@H](C)NC1=O)NC(=O)c1cc(F)c(Cl)cc1NC(=O)OC [Example 134] | false |
| C[C@@H]1C[C@@H](C[C@H](NC(=O)c2cc(Cl)cnc2NC(=O)C2(C(F)(F)F)CC2)C(=O)C(=O)NC2CC2)C(=O)N1 [Example 22] | false |
| C[C@@H]1C[C@@H](C[C@H](NC(=O)c2cc(Cl)ccc2NC(=O)C(C)(C)O)C(=O)C(=O)NC2CC2)C(=O)N1 [Example 165] | true |
| C[C@@H]1C[C@@H](C[C@H](NC(=O)c2cc(Cl)ccc2NC(=O)[C@@H]2CN(C)C(=O)O2)C(=O)C(=O)NC2CC2)C(=O)N1 [Example 204] | true |
| CNC(=O)C(=O)[C@H](C[C@@H]1C[C@@H](C)NC1=O)NC(=O)c1cc(C(F)F)ccc1NC(=O)c1cccc(C(F)(F)F)c1 [Example 70] | true |
| C[C@@H]1C[C@@H](C[C@H](NC(=O)c2cc(Cl)ccc2NC(=O)c2cncc(C(F)(F)F)c2)C(=O)C(=O)NC2CC2)C(=O)N1 [Example 94] | false |
| CNC(=O)C(=O)[C@H](C[C@@H]1C[C@@H](C)NC1=O)NC(=O)c1cc(Cl)c(F)cc1NC(=O)c1ccc(C(F)(F)F)nc1 [Example 223] | false |
| CNC(=O)C(=O)[C@H](C[C@@H]1CCNC1=O)NC(=O)c1cc(Cl)ccc1NC(=O)c1ccnc(C(F)(F)F)c1 [Example 90] | false |
| O=C(CCC(F)(F)F)Nc1ccc(Cl)cc1C(=O)N[C@@H](C[C@@H]1C[C@@H](C(F)(F)F)NC1=O)C(=O)C(=O)NC1CC1 [Example 68] | true |
| CNC(=O)C(=O)[C@H](C[C@@H]1CCNC1=O)NC(=O)c1cc(Cl)ccc1NC(=O)OC(C)C [Example 128] | true |
| O=C(NC1CC1)C(=O)[C@H](C[C@@H]1CCNC1=O)NC(=O)c1cc(Cl)ccc1NC(=O)c1ccnc(C(F)(F)F)c1 [Example 75] | true |
| C[C@@H]1C[C@@H](C[C@H](NC(=O)c2cc(Cl)cc(Cl)c2NC(=O)C23CC(F)(C2)C3)C(=O)C(=O)NC2CC2)C(=O)N1 [Example 80] | false |
| C[C@@H]1C[C@@H](C[C@H](NC(=O)c2cc(Cl)ccc2NC(=O)c2cnc(C(F)(F)F)cn2)C(=O)C(=O)NC2CC2)C(=O)N1 [Example 226] | false |
| C[C@@H]1C[C@@H](C[C@H](NC(=O)c2cc(C(F)F)ccc2NC(=O)c2cccc(C(F)(F)F)c2)C(=O)C(=O)NC2CC2)C(=O)N1 [Example 44] | false |
